// data source = patent US20250163119A1

Examples of binders with documented Y79 cAMP EC50 follow.
TESTED_TARGET: T1, human corticotropin-releasing hormone receptor 1 (CRHR1) (human, UniProt P34998 24-415)
T1 sequence (looked up): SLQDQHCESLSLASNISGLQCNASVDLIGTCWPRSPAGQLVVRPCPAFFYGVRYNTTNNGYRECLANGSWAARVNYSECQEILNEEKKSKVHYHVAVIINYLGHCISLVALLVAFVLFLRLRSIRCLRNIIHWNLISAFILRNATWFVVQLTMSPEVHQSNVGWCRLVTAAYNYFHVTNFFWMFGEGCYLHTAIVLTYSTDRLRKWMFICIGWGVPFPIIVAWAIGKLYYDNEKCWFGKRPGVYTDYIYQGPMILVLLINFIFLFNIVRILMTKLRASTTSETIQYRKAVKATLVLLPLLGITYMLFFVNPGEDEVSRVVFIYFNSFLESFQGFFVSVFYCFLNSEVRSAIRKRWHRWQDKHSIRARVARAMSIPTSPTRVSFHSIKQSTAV
ASSAY_OVERVIEW: cell-based or functional assay
*1 amine or outer side, *2 acyl side, *3 side chain or, on linkers, in order; H or OH if unused. Where no end group is shown, it is not given here. Side-chain parts run from the residue outwards. [ ]: non-standard residue; d: D form. The star is where a group is joined. C20 diacid = O=C(O)CCCCCCCCCCCCCCCCCCC(=O)*; γGlu = O=C(O)[C@H](CCC(=O)[*:2])N[*:1]; εLys = N[C@@H](CCCCN[*:1])C(=O)[*:2]; pGlu = O=C1CC[C@@H](C(=O)O)N1; αMeL = CC(C)C[C@](C)(N)C(=O)O; AEEA = NCCOCCOCC(=O)O; Aib = CC(C)(N)C(=O)O
Field format: number, assumed nM, no unit text.

Ac-GSPSIVTS[αMeL]DVPT[Aib][αMeL]LQKILEQERAEKARQQAK([γGlu-AEEA-εLys-C20 diacid])EAAEILAQV-NH2 [polypeptide comprising SEQ ID NO:1] ... 1400
Ac-PPPIVTS[αMeL]D[dV]PT[Aib][αMeL]LQKLLEQERAEKARQQAK([γGlu-AEEA-εLys-C20 diacid])EAAEILAQV-NH2 [polypeptide comprising SEQ ID NO:47] ... 720
Ac-PPPIVTS[αMeL]D[dV]PT[Aib][αMeL]LQK[Aib]LEQERAEKARQQAK([γGlu-AEEA-εLys-C20 diacid])ENTEILAQV-NH2 [polypeptide comprising SEQ ID NO:46] ... 4000
Ac-GSPSIVTS[αMeL]DVPT[Aib][αMeL]LQKLLEQERAEKARQQAK([γGlu-AEEA-εLys-C20 diacid])EAAEILAQV-NH2 [polypeptide comprising SEQ ID NO:2] ... 2100
Ac-PPPIVTS[αMeL]DVPT[Aib][αMeL]LQKLLEQERAEKARQQAK([γGlu-AEEA-εLys-C20 diacid])EAAEILAQV-NH2 [polypeptide comprising SEQ ID NO:48] ... 4500

// Y79 cAMP EC50 value for [pGlu]GSPSGIVTS[αMeL]DVPT[Aib][αMeL]LQKILEQERAEKARQQAK([γGlu-AEEA-εLys-C20 diacid])EAAEILAQV-NH2 [polypeptide comprising SEQ ID NO:22] : 2400

// sample [γGlu]GSPSIVTS[αMeL]DVPT[Aib][αMeL]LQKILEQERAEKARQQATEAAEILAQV-NH2 (not fully specified (residue 1, N-terminus); also: Glu1 linked through its gamma-carboxyl to Gly2) [polypeptide comprising SEQ ID NO:25] , its Y79 cAMP EC50 was 620
